- test.system: Src kinase (h) (Homo sapiens (Human), UniProt P12931)
- Sequence (P12931 whole entry, looked up): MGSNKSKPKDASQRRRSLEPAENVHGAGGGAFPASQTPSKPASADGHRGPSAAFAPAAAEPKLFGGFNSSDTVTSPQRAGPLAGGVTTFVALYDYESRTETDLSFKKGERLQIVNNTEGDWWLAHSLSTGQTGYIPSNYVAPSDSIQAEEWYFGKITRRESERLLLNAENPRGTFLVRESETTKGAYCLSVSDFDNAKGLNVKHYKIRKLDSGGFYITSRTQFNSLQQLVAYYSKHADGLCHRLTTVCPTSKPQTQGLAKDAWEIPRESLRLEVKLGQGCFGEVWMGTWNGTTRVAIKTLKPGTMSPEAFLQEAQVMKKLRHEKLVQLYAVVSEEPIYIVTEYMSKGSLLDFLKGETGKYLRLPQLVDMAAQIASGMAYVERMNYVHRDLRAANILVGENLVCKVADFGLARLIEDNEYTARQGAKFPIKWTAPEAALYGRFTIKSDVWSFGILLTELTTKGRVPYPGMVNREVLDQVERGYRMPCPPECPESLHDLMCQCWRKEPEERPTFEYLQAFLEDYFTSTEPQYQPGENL
- measurement.description: Cerep kinase profiling, HTRF assay, Src kinase
- Format: biochemical
- run.parameters: Table 9; Cerep; read-out: IC50 in M c-Src
test.readout: IC50 (µM)

>>> print(df.to_string())
                                   compound  unit_descriptor  experimental_result
0  CN(C)CCCNC(=O)c1cc2cc(NC(=O)c3ccccc3Br)cnc2[nH]1 [ND0009]               µM                  2.2

====

- test.system: Abl kinase (h) (Homo sapiens (Human), UniProt P00519)
- Sequence (P00519 whole entry): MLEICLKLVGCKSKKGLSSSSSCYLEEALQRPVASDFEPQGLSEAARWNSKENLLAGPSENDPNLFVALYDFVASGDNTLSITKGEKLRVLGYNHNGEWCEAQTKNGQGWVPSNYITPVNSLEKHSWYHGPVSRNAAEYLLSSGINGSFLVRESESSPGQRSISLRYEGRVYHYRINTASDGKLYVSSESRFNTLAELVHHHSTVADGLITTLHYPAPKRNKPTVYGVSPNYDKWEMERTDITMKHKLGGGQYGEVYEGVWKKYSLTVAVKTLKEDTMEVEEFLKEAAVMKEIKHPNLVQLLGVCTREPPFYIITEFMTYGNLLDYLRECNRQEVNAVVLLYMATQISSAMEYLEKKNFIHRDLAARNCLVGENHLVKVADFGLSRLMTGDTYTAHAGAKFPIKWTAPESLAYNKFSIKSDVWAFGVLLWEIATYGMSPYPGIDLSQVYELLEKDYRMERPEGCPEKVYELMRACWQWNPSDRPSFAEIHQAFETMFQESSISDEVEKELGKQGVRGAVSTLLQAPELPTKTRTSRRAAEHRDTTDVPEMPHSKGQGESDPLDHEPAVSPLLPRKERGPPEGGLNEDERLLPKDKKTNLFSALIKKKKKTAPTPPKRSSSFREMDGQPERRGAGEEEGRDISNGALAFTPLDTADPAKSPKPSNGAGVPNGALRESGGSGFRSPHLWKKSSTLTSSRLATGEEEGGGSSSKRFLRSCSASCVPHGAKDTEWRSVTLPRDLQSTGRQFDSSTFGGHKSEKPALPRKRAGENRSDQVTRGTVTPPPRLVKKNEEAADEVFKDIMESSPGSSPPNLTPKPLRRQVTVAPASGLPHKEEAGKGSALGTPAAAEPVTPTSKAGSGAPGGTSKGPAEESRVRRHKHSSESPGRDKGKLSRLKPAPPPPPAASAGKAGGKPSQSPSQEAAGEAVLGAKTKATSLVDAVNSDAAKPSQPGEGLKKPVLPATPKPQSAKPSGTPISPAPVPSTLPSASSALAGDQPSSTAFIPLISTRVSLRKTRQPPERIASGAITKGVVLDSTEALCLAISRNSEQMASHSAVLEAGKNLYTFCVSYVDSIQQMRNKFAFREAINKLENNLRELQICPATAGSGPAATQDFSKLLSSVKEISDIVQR
- measurement.description: Cerep kinase profiling, HTRF assay, Abl kinase
- Assay type: biochemical
- run.parameters: Table 6; compound incubated at 10 μM; read-out: Percentage inhibition of kinase Abl
Quick list: inhibition at 10 µM per entry.
test.readout: inhibition at 10 µM (%)

                      smiles_representation  unit_descriptor  experimental_result
0  COC(=O)c1cc2cc(NC(=O)c3cccc(C#N)c3)cnc2[nH]1                %                   20
1  O=C(Nc1cnc2[nH]c(CNc3cccc([N+](=O)[O-])c3)cc2c1)c1ccccc1Br                %                   17
2  O=C(Nc1cnc2[nH]c(Cc3ccc[nH]3)cc2c1)c1ccccc1Br                %                   97
3  Cc1nc(-c2cccc(C(=O)Nc3cnc4[nH]c(C(=O)NCCCN(C)C)cc4c3)c2)cs1                %                    6
4         CCC(=O)Nc1cnc2[nH]c(C(=O)OC)cc2c1                %                   49
5      COC(=O)c1cc2cc(NC(=O)C(C)C)cnc2[nH]1                %                   58
6  N#Cc1ccc(NCc2cc3cc(NC(=O)c4ccccc4Br)cnc3[nH]2)cc1                %                   27
7  COC(=O)c1cc2cc(NC(=O)c3ccc(-c4csc(C)n4)cc3)cnc2[nH]1                %                   15
8  COC(=O)c1cc2cc(NC(=O)c3c(F)cccc3OC)cnc2[nH]1                %                   94
